test system: HEK-293T; assay: Incucyte cell viability with HEK293T; assay type: toxicity, cell-based; settings: human, 24 h, 10 µM, compound concentration 10 uM, replicate number 1; also: unitless GR value; below 1 slowed growth and below 0 cell loss
Growth Rate under 0.2 gets TRUE, anything at or over 0.2 gets FALSE.

Example entries and their recorded answers appear below.
molecule=CN1CC(=O)N(C)c2cnc(Nc3ccc(NC(=O)Nc4cccc(C(=O)O)c4)cc3)nc21 group_label=FALSE
molecule=FC(F)(F)c1ccccc1-c1cc(C(F)(F)F)c2[nH]c(C3=NOC4(CCCCC4)C3)nc2c1 group_label=TRUE
molecule="Cc1[nH]nc2ccc(-c3cncc(OCC(N)Cc4c[nH]c5ccccc45)c3)cc12 (configuration not stated)" group_label=TRUE
molecule=O=C(NS(=O)(=O)N1CCC1)c1cc(C2CC2)c(OCC23CC4CC(CC(C4)C2)C3)cc1F group_label=FALSE
molecule="CC(C)(C)c1ccc2c(c1)CC[C@H]2NC(=O)Nc1cccc2[nH]ncc12 [ABT-102]" group_label=FALSE

Regarding CN[C@@H](C)C(=O)N[C@H](C(=O)N1CCC[C@H]1C(=O)Nc1sc(-c2ncco2)nc1-c1ccccc1)C1CCCCC1 [GDC-0917] , kindly confirm whether its Growth Rate is beneath 0.2.
FALSE

Please let me know if "CN1CCCN(C(=O)c2cccc(-c3ccc(/C=C4/C(=O)Nc5ccc(Cl)cc54)o3)c2)CC1" shows Growth Rate below 0.2.
TRUE
